Entry source: patent US20250179103A1

- assayed.system: Recombinant STAT6 protein (STAT6(W123-T658)) (Homo sapiens)
- Construct: Recombinant STAT6 protein (STAT6(W123-T658))
- Sequence (P42226 123-658): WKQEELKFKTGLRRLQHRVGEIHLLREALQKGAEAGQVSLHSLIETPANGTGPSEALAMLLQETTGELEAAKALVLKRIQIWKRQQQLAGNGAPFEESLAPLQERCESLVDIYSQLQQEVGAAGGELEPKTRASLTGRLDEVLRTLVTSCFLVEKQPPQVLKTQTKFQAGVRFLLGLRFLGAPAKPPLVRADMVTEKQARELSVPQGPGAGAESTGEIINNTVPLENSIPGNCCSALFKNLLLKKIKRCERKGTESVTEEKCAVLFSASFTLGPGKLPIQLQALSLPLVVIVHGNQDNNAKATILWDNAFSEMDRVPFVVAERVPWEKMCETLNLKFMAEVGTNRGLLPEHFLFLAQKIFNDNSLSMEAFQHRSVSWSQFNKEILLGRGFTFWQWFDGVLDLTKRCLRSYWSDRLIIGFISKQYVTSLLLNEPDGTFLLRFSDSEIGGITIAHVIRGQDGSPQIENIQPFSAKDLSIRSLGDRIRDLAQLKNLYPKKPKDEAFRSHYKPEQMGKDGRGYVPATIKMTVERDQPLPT
- experiment: STAT6 Fluorescence Polarization (FP) Assay
- protocol.conditions: STAT6(W123-T658) 250 nM, probe 5-FAM-ApYKPFQDLI-NH2 2 nM, 45-minute incubation
Overview of reported IC50 across a group of compounds:

compound	assayed.system	IC50
COc1ccc(CC2CCCN2C(=O)[C@@H]2CC[C@@H]3CCN(C(C)=O)C[C@H](NC(=O)c4cc5cc(C(F)(F)P(=O)(O)O)ccc5[nH]4)C(=O)N32)cc1 (some centres unmarked)	Recombinant STAT6 protein (STAT6(W123-T658)) (Homo sapiens)	0.3 to 3 µM
CC(=O)N1CC[C@H]2CC[C@@H](C(=O)N3CC(c4cc[nH]c(=O)c4)[C@@H](C#N)C3)N2C(=O)[C@@H](NC(=O)c2cc3cc(C(F)(F)P(=O)(O)O)ccc3s2)C1 (relative stereo)	Recombinant STAT6 protein (STAT6(W123-T658)) (Homo sapiens)	≤ 0.3 µM
C[C@@H](CC(=O)N1CC[C@H]2CC[C@@H](C(=O)N3CCCC3)N2C(=O)[C@@H](NC(=O)c2cc3cc(C(F)(F)P(=O)(O)O)ccc3s2)C1)c1ccccc1	Recombinant STAT6 protein (STAT6(W123-T658)) (Homo sapiens)	0.3 to 3 µM
CN(CC(C)(C)C#N)C(=O)[C@@H]1CC[C@@H]2CCN(CC(F)F)C[C@H](NC(=O)c3cc4cc(C(F)(F)P(=O)(O)O)ccc4s3)C(=O)N21	Recombinant STAT6 protein (STAT6(W123-T658)) (Homo sapiens)	0.3 to 3 µM

Now, please, on to the next compound.
Consider the compound CC(=O)N1CC[C@H]2CC[C@@H](C(=O)N(C)c3ccccc3)N2C(=O)[C@@H](NC(=O)/C=C(\C)c2cccc(C(F)(F)P(=O)(O)O)c2)C1 and give its measured IC50. 3 to 30 µM
